Test: Biodistribution, CHO-K1-GRPR + CHO-K1-PSMA dual xenograft mice
Details: female, NOD SCID, mouse, intestine (empty), intravenous, 1.41 nmol, total radioactivity, Biodistribution: Intestine (empty), Mouse #7; single tracer; dual xenograft; 24.2 h p.i.; 1.41 nmol

compound	tissue uptake at 24.2 h [%ID/g]
CC(C)C[C@H](NC(=O)C[C@H](O)[C@H](CC(C)C)NC(=O)[C@H](Cc1c[nH]cn1)NC(=O)CNC(=O)[C@@H](NC(=O)[C@H](C)NC(=O)[C@H](Cc1c[nH]c2ccccc12)NC(=O)[C@H](CCC(N)=O)NC(=O)[C@@H](Cc1ccccc1)NC(=O)CN1CCC(NC(=O)CN2CCN(CC(=O)O)CCN(CC(=O)O)CCN(CC(=O)O)CC2)CC1)C(C)C)C(N)=O [[^111In]In-RM2, metal not drawn]	0.04

----------
Test: Biodistribution, PC-3 xenograft mice
Assay type: in vivo, NOD SCID mice
Conditions: female, NOD SCID, muscle, intravenous, total radioactivity; Mouse #1; single tracer; PC-3 xenograft; 25.1 h p.i.; 1.34 nmol; read-out: Biodistribution: Muscle

compound	tissue uptake at 25.1 h (%ID/g)
CC(C)C[C@H](NC(=O)C[C@H](O)[C@H](CC(C)C)NC(=O)[C@H](Cc1c[nH]cn1)NC(=O)CNC(=O)[C@@H](NC(=O)[C@H](C)NC(=O)[C@H](Cc1c[nH]c2ccccc12)NC(=O)[C@H](CCC(N)=O)NC(=O)[C@@H](Cc1ccccc1)NC(=O)CN1CCC(NC(=O)CN2CCN(CC(=O)O)CCN(CC(=O)O)CCN(CC(=O)O)CC2)CC1)C(C)C)C(N)=O [[^111In]In-RM2, metal not drawn]	0.01

----------
Assay: Biodistribution, CHO-K1-GRPR + CHO-K1-PSMA dual xenograft mice
Conditions: female, NOD SCID, mouse, adrenal, intravenous, 0.58 nmol, total radioactivity, Biodistribution: Adrenal, Mouse #4; single tracer; dual xenograft; 24.2 h p.i.; 0.58 nmol
measurementLabel: tissue uptake at 24.2 h (%ID/g)

compound	measurementLabel	reported
CC(C)C[C@H](NC(=O)C[C@H](O)[C@H](CC(C)C)NC(=O)[C@H](Cc1c[nH]cn1)NC(=O)CNC(=O)[C@@H](NC(=O)[C@H](C)NC(=O)[C@H](Cc1c[nH]c2ccccc12)NC(=O)[C@H](CCC(N)=O)NC(=O)[C@@H](Cc1ccccc1)NC(=O)CN1CCC(NC(=O)CN2CCN(CC(=O)O)CCN(CC(=O)O)CCN(CC(=O)O)CC2)CC1)C(C)C)C(N)=O [[^111In]In-RM2, metal not drawn]	tissue uptake at 24.2 h	0.12

----------
Test: Biodistribution, PC-3 xenograft mice
Assay type: in vivo, NOD SCID mice
Settings: female, NOD SCID, bone, intravenous, total radioactivity; Mouse #3; single tracer; PC-3 xenograft; 4 h p.i.; 1.49 nmol; read-out: Biodistribution: Bone

compound	tissue uptake at 4 h, %ID/g
CC(C)C[C@H](NC(=O)C[C@H](O)[C@H](CC(C)C)NC(=O)[C@H](Cc1c[nH]cn1)NC(=O)CNC(=O)[C@@H](NC(=O)[C@H](C)NC(=O)[C@H](Cc1c[nH]c2ccccc12)NC(=O)[C@H](CCC(N)=O)NC(=O)[C@@H](Cc1ccccc1)NC(=O)CN1CCC(NC(=O)CN2CCN(CC(=O)O)CCN(CC(=O)O)CCN(CC(=O)O)CC2)CC1)C(C)C)C(N)=O [[^111In]In-RM2, metal not drawn]	0.04

----------
Assay: Biodistribution, CHO-K1-GRPR + CHO-K1-PSMA dual xenograft mice
Details: female, NOD SCID, mouse, liver, intravenous, 0.58 nmol, total radioactivity, Biodistribution: Liver, Mouse #4; single tracer; dual xenograft; 24.2 h p.i.; 0.58 nmol

molecule	tissue uptake at 24.2 h, %ID/g
CC(C)C[C@H](NC(=O)C[C@H](O)[C@H](CC(C)C)NC(=O)[C@H](Cc1c[nH]cn1)NC(=O)CNC(=O)[C@@H](NC(=O)[C@H](C)NC(=O)[C@H](Cc1c[nH]c2ccccc12)NC(=O)[C@H](CCC(N)=O)NC(=O)[C@@H](Cc1ccccc1)NC(=O)CN1CCC(NC(=O)CN2CCN(CC(=O)O)CCN(CC(=O)O)CCN(CC(=O)O)CC2)CC1)C(C)C)C(N)=O [[^111In]In-RM2, metal not drawn]	0.1

----------
Test: Biodistribution, CHO-K1-GRPR + CHO-K1-PSMA dual xenograft mice
Details: female, NOD SCID, mouse, liver, intravenous, 2.69 nmol, total radioactivity, Biodistribution: Liver, Mouse #9; dual tracer; dual xenograft; 17.6 h p.i.; 2.69 nmol
measurementLabel: tissue uptake at 17.6 h (%ID/g)

molecule	measurementLabel	reported
CC(C)C[C@H](NC(=O)C[C@H](O)[C@H](CC(C)C)NC(=O)[C@H](Cc1c[nH]cn1)NC(=O)CNC(=O)[C@@H](NC(=O)[C@H](C)NC(=O)[C@H](Cc1c[nH]c2ccccc12)NC(=O)[C@H](CCC(N)=O)NC(=O)[C@@H](Cc1ccccc1)NC(=O)CN1CCC(NC(=O)CN2CCN(CC(=O)O)CCN(CC(=O)O)CCN(CC(=O)O)CC2)CC1)C(C)C)C(N)=O [[^111In]In-RM2, metal not drawn]	tissue uptake at 17.6 h	0.13

----------
Assay: Biodistribution, PC-3 xenograft mice
Assay type: in vivo, NOD SCID mice
Conditions: female, NOD SCID, spleen, intravenous, total radioactivity; Mouse #3; single tracer; PC-3 xenograft; 4 h p.i.; 1.49 nmol; read-out: Biodistribution: Spleen
measurementLabel: tissue uptake at 4 h (%ID/g)

compound	readoutUnit	reported
CC(C)C[C@H](NC(=O)C[C@H](O)[C@H](CC(C)C)NC(=O)[C@H](Cc1c[nH]cn1)NC(=O)CNC(=O)[C@@H](NC(=O)[C@H](C)NC(=O)[C@H](Cc1c[nH]c2ccccc12)NC(=O)[C@H](CCC(N)=O)NC(=O)[C@@H](Cc1ccccc1)NC(=O)CN1CCC(NC(=O)CN2CCN(CC(=O)O)CCN(CC(=O)O)CCN(CC(=O)O)CC2)CC1)C(C)C)C(N)=O [[^111In]In-RM2, metal not drawn]	%ID/g	0.1

----------
Experiment: Biodistribution, CHO-K1-GRPR + CHO-K1-PSMA dual xenograft mice
Details: female, NOD SCID, mouse, lung, intravenous, 1.41 nmol, total radioactivity, Biodistribution: Lung, Mouse #7; single tracer; dual xenograft; 24.2 h p.i.; 1.41 nmol

compound	tissue uptake at 24.2 h
CC(C)C[C@H](NC(=O)C[C@H](O)[C@H](CC(C)C)NC(=O)[C@H](Cc1c[nH]cn1)NC(=O)CNC(=O)[C@@H](NC(=O)[C@H](C)NC(=O)[C@H](Cc1c[nH]c2ccccc12)NC(=O)[C@H](CCC(N)=O)NC(=O)[C@@H](Cc1ccccc1)NC(=O)CN1CCC(NC(=O)CN2CCN(CC(=O)O)CCN(CC(=O)O)CCN(CC(=O)O)CC2)CC1)C(C)C)C(N)=O [[^111In]In-RM2, metal not drawn]	0.04 %ID/g

----------
Assay: Biodistribution, CHO-K1-GRPR + CHO-K1-PSMA dual xenograft mice
Details: female, NOD SCID, mouse, colon (empty), intravenous, 0.37 nmol, total radioactivity, Biodistribution: Colon (empty), Mouse #5; single tracer; dual xenograft; 24.2 h p.i.; 0.37 nmol
measurementLabel: tissue uptake at 24.2 h (%ID/g)

compound	reported
CC(C)C[C@H](NC(=O)C[C@H](O)[C@H](CC(C)C)NC(=O)[C@H](Cc1c[nH]cn1)NC(=O)CNC(=O)[C@@H](NC(=O)[C@H](C)NC(=O)[C@H](Cc1c[nH]c2ccccc12)NC(=O)[C@H](CCC(N)=O)NC(=O)[C@@H](Cc1ccccc1)NC(=O)CN1CCC(NC(=O)CN2CCN(CC(=O)O)CCN(CC(=O)O)CCN(CC(=O)O)CC2)CC1)C(C)C)C(N)=O [[^111In]In-RM2, metal not drawn]	0.08

----------
Assay: Biodistribution, CHO-K1-GRPR + CHO-K1-PSMA dual xenograft mice
Conditions: female, NOD SCID, mouse, CHO-K1-GRPR tumor, intravenous, 1 nmol, total radioactivity, Biodistribution: CHO-K1-GRPR Tumor, Mouse #8; dual tracer; dual xenograft; 25.8 h p.i.; 1.00 nmol
measurementLabel: tissue uptake at 25.8 h (%ID/g)

molecule	reported
CC(C)C[C@H](NC(=O)C[C@H](O)[C@H](CC(C)C)NC(=O)[C@H](Cc1c[nH]cn1)NC(=O)CNC(=O)[C@@H](NC(=O)[C@H](C)NC(=O)[C@H](Cc1c[nH]c2ccccc12)NC(=O)[C@H](CCC(N)=O)NC(=O)[C@@H](Cc1ccccc1)NC(=O)CN1CCC(NC(=O)CN2CCN(CC(=O)O)CCN(CC(=O)O)CCN(CC(=O)O)CC2)CC1)C(C)C)C(N)=O [[^111In]In-RM2, metal not drawn]	0.38
